# Tested on: Escherichia coli
# methodDescription: Inhibition of ZipA FtsZ binding at 1 mM using an optical biosensor system
measuredQuantity: inhibition (%)
Report the value in % with no unit label.

The following compounds have reported results that may help.
[[record]]
compound = "N#CCCNC(=O)CCn1c2c(c3ccccc31)C(=O)CN1CCCCC21 (stereo not given)"
measuredquantity = "inhibition"
reading = 22

[[record]]
compound = "O=C(CCCn1c2c(c3ccccc31)C(=O)CN1CCCCC21)NC1CCCC1 (stereo not given)"
measuredquantity = "inhibition"
reading = 24


Consider Cc1ccc(CNC(=O)CCCn2c3c(c4ccccc42)C(=O)CN2CCCCC32)o1 (stereo not given) . Its measured inhibition is 23

Reported inhibition of CC(C)S(=O)(=O)NCCCn1c2c(c3ccccc31)C(=O)CN1CCCCC21 (stereo not given) : 46

The compound O=C(NCCCn1c2c(c3ccccc31)C(=O)CN1CCCCC21)c1ccco1 (stereo not given) showed inhibition equal to 38

Looking up O=C1CN2CCCCC2c2c1c1ccccc1n2CCCNS(=O)(=O)c1cc(Cl)sc1Cl (stereo not given) , I see its inhibition listed as 12

Please fill in: inhibition reported for CS(=O)(=O)NCCCn1c2c(c3ccccc31)C(=O)CN1CCCCC21 (stereo not given) = 41

Please fill in: inhibition reported for O=C(CCCn1c2c(c3ccccc31)C(=O)CN1CCCCC21)NCC(F)(F)F (stereo not given) = 21

Per the records, this compound ( Cc1nnsc1S(=O)(=O)NCCCn1c2c(c3ccccc31)C(=O)CN1CCCCC21 (stereo not given) ) has inhibition equal to 30

Data point: O=C1CN2CCCCC2c2c1c1ccccc1n2CCCNS(=O)(=O)c1ccc(Cl)s1 (stereo not given) ; inhibition = 11

// field: inhibition; key: O=C1CN2CCCCC2c2[nH]c3ccccc3c21 (stereo not given) ; value = 39

What the record says about O=C1CN2CCCCC2c2c1c1ccccc1n2CCCNS(=O)(=O)c1cccs1 (stereo not given) : inhibition is 25

inhibition for NCCCn1c2c(c3ccccc31)C(=O)CN1CCCCC21 (stereo not given) is 47

// Cc1ccc(CNC(=O)CCn2c3c(c4ccccc42)C(=O)CN2CCCCC32)o1 (stereo not given) : inhibition value = 32

# compound O=C(Cc1ccc(F)cc1)NCCCn1c2c(c3ccccc31)C(=O)CN1CCCCC21 (stereo not given) ; its inhibition = 33

Value of inhibition reported for the compound O=C(NCCCn1c2c(c3ccccc31)C(=O)CN1CCCCC21)c1ccc(Cl)c(Cl)c1 (stereo not given) is 8

So, O=C1CN2CCCCC2c2c1c1ccccc1n2CCCN1CC(Br)C1=O (stereo not given) ? Its inhibition was 38

Quick note, inhibition for N#CCCNC(=O)CCCn1c2c(c3ccccc31)C(=O)CN1CCCCC21 (stereo not given) landed at 39

The value of inhibition measured for the compound O=C(Cn1c2c(c3ccccc31)C(=O)CN1CCCCC21)NC1CCCC1 (stereo not given) turned out to be 31

// inhibition value for CCCCS(=O)(=O)NCCCn1c2c(c3ccccc31)C(=O)CN1CCCCC21 (stereo not given) : 25
